Reported values of current density for individual entries
Tested on: HEK Patch Clamp Assay
PROCEDURE_TEXT: activators of mucolipin-3 and mucolipin-2 – cell-based, patch clamp, Fura-2 profiling panel (AID 2116)
TEST_SETTINGS: HEK293 cells expressing TRPML3-YFP; patch clamp current at -80 mV
Kindly write the number and append the unit.

COMPOUND	MEASURED
Cc1ccc(S(=O)(=O)Nc2ccccc2-c2ccccc2)cc1	-0.003 nA/pF
O=S(=O)(NC1CCCCC1N1CCOCC1)c1ccc(Cl)cc1 (centres undefined)	-0.003 nA/pF
Cc1ccc(N2CCN(S(=O)(=O)N3CCCCC3)CC2)c(C)c1	-0.007 nA/pF

-- ask Recorded current density for `O=S(=O)(Nc1ccccc1N1CCOCC1)c1ccc(Cl)s1` , please?
-- reply -0.005 nA/pF
